Listed here: compounds with reported pKi for 5-hydroxytryptamine receptor 2A (Rattus norvegicus, UniProt P14842).
As a rule, pKi stands for the negative log10 of the concentration, concentration in M.

# COMPOUND, EXPERIMENTAL_SYSTEM, pKi
measured = [
    ("COc1ccccc1N1CCN(CCN2C(=O)CCC2=O)CC1", "5-hydroxytryptamine receptor 2A (Rattus norvegicus, UniProt P14842)", 4.76),
]

Problem: Recall the recorded pKi for COc1ccccc1N1CCN(CCN2C(=O)CC(C3CCCCC3)C2=O)CC1 (stereo not given) with 5-hydroxytryptamine receptor 2A (Rattus norvegicus, UniProt P14842) and state it.
Sequence (P14842 whole entry): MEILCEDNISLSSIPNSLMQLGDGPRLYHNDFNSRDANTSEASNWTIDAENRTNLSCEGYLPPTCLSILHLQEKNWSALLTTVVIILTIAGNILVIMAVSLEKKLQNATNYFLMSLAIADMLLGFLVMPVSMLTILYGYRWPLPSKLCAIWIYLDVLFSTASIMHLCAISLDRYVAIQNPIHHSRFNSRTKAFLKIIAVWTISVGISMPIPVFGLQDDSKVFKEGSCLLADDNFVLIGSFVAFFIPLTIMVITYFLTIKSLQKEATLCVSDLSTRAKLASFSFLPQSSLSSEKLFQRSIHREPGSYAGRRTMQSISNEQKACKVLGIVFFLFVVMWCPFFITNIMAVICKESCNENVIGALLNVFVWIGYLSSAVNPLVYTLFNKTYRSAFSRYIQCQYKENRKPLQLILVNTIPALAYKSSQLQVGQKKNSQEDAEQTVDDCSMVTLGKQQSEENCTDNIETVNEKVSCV
Solution: 6.06

Problem: Recall the recorded pKi for `O=C(NCCN1CCN(c2cccc(Cl)c2)CC1)[C@@H]1CCC(=O)N1C(=O)C1CCCCC1` with 5-hydroxytryptamine receptor 2A (Rattus norvegicus, UniProt P14842) and state it.
Solution: 5.49

Problem: Recall the recorded pKi for COc1ccccc1N1CCN(CCN2C(=O)CC(NC(C)=O)C2=O)CC1 (stereo not given) with 5-hydroxytryptamine receptor 2A (Rattus norvegicus, UniProt P14842) and state it.
Solution: 5.25

Problem: Recall the recorded pKi for `O=C(N[C@H]1CC(=O)N(CCCCN2CCN(c3cccc(Cl)c3)CC2)C1=O)c1ccccc1` with 5-hydroxytryptamine receptor 2A (Rattus norvegicus, UniProt P14842) and state it.
Solution: 7.12

Problem: Recall the recorded pKi for `O=C(NCCN1CCN(c2cccc(Cl)c2)CC1)[C@@H]1CCCN1C(=O)C1CCCC1` with 5-hydroxytryptamine receptor 2A (Rattus norvegicus, UniProt P14842) and state it.
Solution: 6.45

Problem: Recall the recorded pKi for `COc1ccccc1N1CCN(CCNC(=O)[C@@H]2CCCN2C(=O)C2CCCCC2)CC1` with 5-hydroxytryptamine receptor 2A (Rattus norvegicus, UniProt P14842) and state it.
Solution: 5.63

Problem: Recall the recorded pKi for `COc1ccccc1N1CCN(CCNC(=O)[C@@H]2CCCN2C(=O)C23CC4CC(CC(C4)C2)C3)CC1` with 5-hydroxytryptamine receptor 2A (Rattus norvegicus, UniProt P14842) and state it.
Solution: 5.72

Problem: Recall the recorded pKi for `O=C(NCCCCN1CCN(c2cccc(Cl)c2)CC1)[C@@H]1CCC(=O)N1C(=O)C1CCCCC1` with 5-hydroxytryptamine receptor 2A (Rattus norvegicus, UniProt P14842) and state it.
Solution: 6.79

Problem: Recall the recorded pKi for `COc1ccccc1N1CCN(CCN2C(=O)C[C@H](NC(=O)C34CC5CC(CC(C5)C3)C4)C2=O)CC1` with 5-hydroxytryptamine receptor 2A (Rattus norvegicus, UniProt P14842) and state it.
Solution: 5.32

meta.source: ChEMBL document CHEMBL1153881
